// provenance: the METLIN SMRT retention time set (Domingo-Almenara et al. 2019)

experimental protocol: gradient 5% acetonitrile 3 min, to 50% in 2 min, to 85% in 15 min, held 3 min, 100 µL/min
details: column: Zorbax Extend-C18 2.1 x 50 mm; eluents: water / acetonitrile, 0.1% formic acid
Listing: RP-LC retention time of selected compounds

[
  {
    "compound": "COc1cccc(N2CCN(C(=O)C3CCCN(c4ncnc5c4nc4n5CCCCC4)C3)CC2)c1 (stereo not given)",
    "RP-LC retention time / s": 627
  },
  {
    "compound": "Cc1cccc(N2C=C(C(=O)N3CCOCC3)S(=O)(=O)c3ccc(Cl)cc32)c1",
    "RP-LC retention time / s": 868
  },
  {
    "compound": "CN(C)c1cccc(C(=O)NC2CCN(c3ccccc3)C2=O)c1 (stereo not given)",
    "RP-LC retention time / s": 667
  },
  {
    "compound": "O=C(Cn1ccn2nc(-c3ccccc3)c(CO)c2c1=O)Nc1ccccc1C(F)(F)F",
    "RP-LC retention time / s": 830
  },
  {
    "compound": "CCOC(=O)c1cccc(Nc2nc(C)nc3c2CCC3)c1",
    "RP-LC retention time / s": 654
  },
  {
    "compound": "CN(CC1CCOC1)C(=O)c1ccc(F)c(Cl)c1 (stereo not given)",
    "RP-LC retention time / s": 724
  },
  {
    "compound": "CN(c1nc(-c2ccc(C(C)(C)C)cc2)nc2ccccc12)C1CCCCC1",
    "RP-LC retention time / s": 1130
  },
  {
    "compound": "Cc1onc(-c2ccccc2)c1-c1ccc(S(N)(=O)=O)cc1",
    "RP-LC retention time / s": 869
  },
  {
    "compound": "COc1ccc(-c2nnc(N3CCC(C(=O)Nc4ccc(OC)c(OC)c4)CC3)o2)cc1",
    "RP-LC retention time / s": 748
  },
  {
    "compound": "Cc1nnc(CNC(=O)C(=O)Nc2ccon2)o1",
    "RP-LC retention time / s": 534
  }
]

###

experimental protocol: gradient 5% acetonitrile 3 min, to 50% in 2 min, to 85% in 15 min, held 3 min, 100 µL/min
details: column: Zorbax Extend-C18 2.1 x 50 mm; eluents: water / acetonitrile, 0.1% formic acid
Listing: RP-LC retention time of selected compounds
measure name: RP-LC retention time (s)

[
  {
    "compound": "CC(C)c1cc(C(=O)Nc2ccc(F)cc2)nn1C1CCS(=O)(=O)C1 (stereo not given)",
    "value units": "s",
    "result number": 860
  },
  {
    "compound": "Nc1cc(C2CCN(C(=O)Nc3ccccc3F)CC2)no1",
    "value units": "s",
    "result number": 649
  },
  {
    "compound": "CCC(C)C1Nc2ccc(C(=O)NCCCN3CCOCC3)cc2NC1=O (stereo not given)",
    "value units": "s",
    "result number": 584
  },
  {
    "compound": "OC(CN1CCNCC1)Cn1c2ccc(Br)cc2c2cc(Br)ccc21 (stereo not given)",
    "value units": "s",
    "result number": 732
  },
  {
    "compound": "Clc1ccc(Nc2c(-c3ccc(N4CCOCC4)cc3)nc3cnccn23)cc1",
    "value units": "s",
    "result number": 842
  }
]

###

experimental protocol: gradient 5% acetonitrile 3 min, to 50% in 2 min, to 85% in 15 min, held 3 min, 100 µL/min
details: column: Zorbax Extend-C18 2.1 x 50 mm; eluents: water / acetonitrile, 0.1% formic acid
Listing: RP-LC retention time of selected compounds
measure name: RP-LC retention time (s)

[
  {
    "compound": "COc1ccc(C)cc1NC(=O)c1nc(-c2cn(Cc3ccc(F)cc3)nn2)no1",
    "result number": 961
  },
  {
    "compound": "COCCCNC(=O)C1CCN(S(C)(=O)=O)c2cc(Cl)ccc2O1 (stereo not given)",
    "result number": 730
  },
  {
    "compound": "CC1(C(=O)NCc2ccc(F)cc2)CN(S(C)(=O)=O)CC(=O)N1Cc1ccccc1Cl (stereo not given)",
    "result number": 848
  },
  {
    "compound": "Cc1nsc2ncc(C(=O)N3CCOCC3)c(N3CCC(C(=O)Nc4ccccc4F)CC3)c12",
    "result number": 758
  },
  {
    "compound": "Cn1cnc2c(C(=O)NC3CCCCCC3)nn(-c3ccccc3)c2c1=O",
    "result number": 910
  },
  {
    "compound": "COc1ccccc1CNC(=O)c1nnc(-c2ccc(S(=O)(=O)N3CCCCC3)cc2)o1",
    "result number": 911
  },
  {
    "compound": "CCOc1cc(N2CCN(C(=O)c3cc(Cl)ccc3OC)CC2)nc(C)n1",
    "result number": 610
  },
  {
    "compound": "Cc1ccc(NC(=O)C(=O)NCC2(O)CCOCC2)cc1N1CCCC1=O",
    "result number": 575
  },
  {
    "compound": "CC(C)N(CC#CCNS(=O)(=O)c1ccc(Cl)cc1)C(C)C",
    "result number": 568
  },
  {
    "compound": "CCOC(=O)c1ccc(Nc2nnc(CSc3nc(C)cc(C)n3)s2)cc1",
    "result number": 834
  },
  {
    "compound": "CCC(=O)N1CCc2cc(C(=O)N3CCCCCC3)ccc21",
    "result number": 770
  },
  {
    "compound": "CCn1cnc(S(=O)(=O)N2CCCC(C(=O)NC3CCCCCC3)C2)c1 (stereo not given)",
    "result number": 740
  },
  {
    "compound": "COc1ccccc1NC(=O)N1CCCC1c1cc(C(C)C)on1 (stereo not given)",
    "result number": 950
  },
  {
    "compound": "Cc1cc(-c2nnc(-c3ccc(F)cc3)o2)c(C)n1CC(=O)NCc1ccccc1F",
    "result number": 950
  },
  {
    "compound": "CCCn1c(CCC(=O)Nc2ccc3c(c2)OCCO3)nc2cccnc21",
    "result number": 662
  },
  {
    "compound": "Cc1cccc(N2C(=O)CN(Cc3ccccc3Cl)[C@H]3CS(=O)(=O)C[C@H]32)c1",
    "result number": 917
  },
  {
    "compound": "CC1CCN(c2cc(-n3cnc(C(=O)NCc4ccc5c(c4)OCO5)c3)ncn2)CC1",
    "result number": 964
  },
  {
    "compound": "CC(C)CCNC(=O)c1cc2c(s1)N(C)CCC2",
    "result number": 928
  },
  {
    "compound": "CN1CCN(C(=O)C2CCN(S(=O)(=O)c3cc(-c4noc(C5CC5)n4)cs3)CC2)CC1",
    "result number": 643
  },
  {
    "compound": "Cc1noc(C)c1S(=O)(=O)NCC(c1cccs1)S(=O)(=O)c1ccc(F)cc1 (stereo not given)",
    "result number": 847
  }
]

###

experimental protocol: gradient 5% acetonitrile 3 min, to 50% in 2 min, to 85% in 15 min, held 3 min, 100 µL/min
details: column: Zorbax Extend-C18 2.1 x 50 mm; eluents: water / acetonitrile, 0.1% formic acid
Threshold 800 s. RP-LC retention time below it: True. RP-LC retention time at it or above: False.

[
  {
    "compound": "Cc1ccc(-n2nc3c(=O)n(CCCC(=O)NCC4CCCO4)nc(C)c3c2C)cc1 (stereo not given)",
    "classification": "True"
  },
  {
    "compound": "Cc1ccc(-c2noc(-c3cccn(CC(=O)NC(C)C)c3=O)n2)cc1",
    "classification": "True"
  },
  {
    "compound": "O=C(c1c(OCC2CC2)cc(=O)n2c1CCCCC2)N1CCOCC1",
    "classification": "True"
  },
  {
    "compound": "O=C(Cn1ncc2c(c1=O)N(C1CC1)C(=O)CS2)NC1CCCC1",
    "classification": "True"
  },
  {
    "compound": "COC(=O)c1ccccc1NC(=O)N1CCc2nc[nH]c2C1",
    "classification": "True"
  },
  {
    "compound": "COc1ccc2[nH]cc(CCNC(=O)c3cc(Cl)ccc3Cl)c2c1",
    "classification": "False"
  },
  {
    "compound": "COc1cccc(CN2CC(c3nc(CCOCc4ccccc4)no3)C2)c1",
    "classification": "True"
  },
  {
    "compound": "CCOC(=O)c1cnc(N2CCN(c3ccccc3F)CC2)[nH]c1=O",
    "classification": "False"
  },
  {
    "compound": "NCCNc1ccc(NCCN)c2c1C(=O)c1ccncc1C2=O",
    "classification": "True"
  },
  {
    "compound": "Cc1ccc(F)cc1NS(=O)(=O)c1cc2n(c1)CCCNC2=O",
    "classification": "True"
  },
  {
    "compound": "CCNC(=O)C1CCCN(c2nc3ncn(CC(=O)Nc4ccc(C)cc4C)c(=O)c3s2)C1 (stereo not given)",
    "classification": "True"
  },
  {
    "compound": "COC(=O)c1c(C)[nH]c(C(=O)N2CCCC(C(=O)NCCCN3CCCC3)C2)c1C (stereo not given)",
    "classification": "True"
  },
  {
    "compound": "O=C(Cc1ccccc1Cl)NC1CCN(c2cc(-c3cccs3)[nH]n2)C1 (stereo not given)",
    "classification": "True"
  },
  {
    "compound": "CC(C)n1cnc2cc(CNC(=O)c3nn(C)c4ccccc34)ccc21",
    "classification": "True"
  },
  {
    "compound": "CCOCC(=O)N1CC(F)(F)C[C@H]1c1nc(C2CC2)no1",
    "classification": "True"
  },
  {
    "compound": "O=C(NC1(c2nc(-c3ccncc3)no2)CCCCC1)c1ccc(C(F)(F)F)cc1",
    "classification": "False"
  },
  {
    "compound": "Cc1ccc(CNS(=O)(=O)c2cc(-c3cc(C(F)(F)F)on3)sc2C)cc1",
    "classification": "False"
  },
  {
    "compound": "COc1ccccc1Oc1c(NS(=O)(=O)c2ccc(C(C)(C)C)cc2)nc(-c2ncccn2)nc1OCCO",
    "classification": "False"
  },
  {
    "compound": "COc1ccc(F)cc1S(=O)(=O)N1CCC2(CC1)c1nccn1CCN2C",
    "classification": "True"
  },
  {
    "compound": "Cn1cc(C(=O)N2CC(n3cc(COc4ccc(F)cc4)nn3)C2)cn1",
    "classification": "True"
  },
  {
    "compound": "COC(=O)C1=CN(C2CC2)c2cc(N3CCN(c4ccccn4)CC3)c(F)cc2S1(=O)=O",
    "classification": "True"
  },
  {
    "compound": "CCOC(=O)C1CCN(C(=O)C2CCN(c3cncnc3N3CCCCC3)CC2)CC1",
    "classification": "True"
  },
  {
    "compound": "O=C(CC1CCCC1)N1CCN(CCn2cccn2)CC1",
    "classification": "True"
  },
  {
    "compound": "CCCNS(=O)(=O)c1ccc(-c2c(C)noc2C)cc1",
    "classification": "False"
  },
  {
    "compound": "COC[C@@H]1CN(S(=O)(=O)c2ccc(F)cc2)C[C@H]1c1ccncc1",
    "classification": "True"
  },
  {
    "compound": "O=C(NCc1nc(-c2ccc3c(c2)ncn3C2CCCC2)no1)c1ccco1",
    "classification": "True"
  },
  {
    "compound": "O=C(Cc1ccsc1)NC1CCc2nnc(C3CC3)n2CC1 (stereo not given)",
    "classification": "True"
  },
  {
    "compound": "CCc1noc(-c2ccnc(-n3cnc(C(=O)NC4CCCCCC4)c3)c2)n1",
    "classification": "True"
  },
  {
    "compound": "Cc1ccc(-c2nc(-c3ccc4c(c3)nc(C)c(=O)n4C)no2)cc1C",
    "classification": "False"
  },
  {
    "compound": "Cc1cc(C)n(-c2ccc(C(=O)N3CCN(c4ccccc4)CC3)cn2)n1",
    "classification": "False"
  },
  {
    "compound": "COc1ccccc1CNC(=O)CN1CCN(Cc2ccc(F)cc2Cl)C1=O",
    "classification": "False"
  },
  {
    "compound": "COc1ccc(-n2ccc(=O)c(-c3nc(-c4ccc(Br)cc4)no3)n2)cc1",
    "classification": "False"
  },
  {
    "compound": "Cc1ccc(C)c(-c2csc3c(=O)n(CC(=O)OC(C)(C)C)cnc23)c1",
    "classification": "False"
  },
  {
    "compound": "CCOC(=O)c1[nH]c(C)c(CN(Cc2ccco2)C(=O)Cc2ccccc2)c1C",
    "classification": "False"
  },
  {
    "compound": "Cc1ccc(-c2[nH]ncc2CN2CCC3(CCC3O)CC2)cc1 (stereo not given)",
    "classification": "True"
  },
  {
    "compound": "O=C(c1cccnc1)N1CCC(n2c(-c3ccsc3)nc3cccnc32)C1 (stereo not given)",
    "classification": "True"
  }
]
